assay explanation: Inhibition of NDM-1 (unknown origin)
Parameters: species or system Bacteria
property: pIC50
Entry type: numeric. Quantity: pIC50, the -log10 of concentration in molar units.

Query: pIC50; subject: CSCCC(NC(=O)Cc1ccccc1)C(=O)SCC(=O)O (centres undefined)
4.71

And CCN(CC)C(=S)SSC(=S)N(CC)CC ?
6.89

And O=C(O)c1nccn1Cc1ccccc1 ?
4.20

And C[C@H](CS)C(=O)N[C@@H](C(=O)O)c1ccc2cc[nH]c2c1 ?
4.61

And Nc1cccc(-c2cc(C(=O)O)nc(C(=O)O)c2)c1 ?
7.10

And COc1cccc2sc(Nc3nnc(-c4cccs4)o3)nc12 ?
6.16

And CC(C)c1cc2c(c(O)c1O)[C@@]1(C(=O)O)CCCC(C)(C)[C@@H]1CC2 ?
4.57

And CC1=C(c2ccccc2)N(/C(C)=N/c2ccc(Cl)cc2)C(c2ccccc2)N1c1ccc(Cl)cc1 (centres undefined) ?
3.05

And O=C(O)[C@@H]1CS[C@H]2CS[C@H](CS)N21 ?
4.64

And CCCC/C(=N\Nc1cccc2cccnc12)C(=O)O ?
4.08

And CCCC/C(=N\Nc1cccc2ccccc12)C(=O)O ?
4.55

And O=C(O)c1cccc(C(=O)O)n1 ?
5.95

And Oc1c(C(Nc2ccccn2)c2cccs2)ccc2cccnc12 (centres undefined) ?
6.33

And CC(=O)NC1=C(S)/C(=C\S)NC1=O ?
6.96

And CC(=O)C1CSC(C(=O)O)N1 (centres undefined) ?
5.46

And O=C(O)c1cc(-c2ccccc2O)cc(C(=O)O)n1 ?
6.89

And CC1(C)S[C@H]2CS[C@H](CS)N2[C@@H]1C(=O)O ?
3.70

And O=C(O)c1ccc(O)c(CP(=O)(O)O)n1 ?
6.49

And CN(C)c1ccc(-c2cc(C(=O)O)nc(C(=O)O)c2)cc1 ?
6.72

And O=C(Cc1ccccc1)N[C@@H]1C(=O)N2C(C(=O)O)=C(CSc3nnc(-c4ccc(-n5[se]c6ccccc6c5=O)cc4)[nH]3)CSC12 (some centres undefined) ?
5.53

And CCCCC(=O)NC(Cc1c[nH]c2ccccc12)C(=O)SCC(=O)O (centres undefined) ?
4.26

And CCC/C(=N\Nc1cccc2cccnc12)C(=O)O ?
4.17

And O=c1c2ccccc2sn1-c1ccccc1 ?
6.80

And O=C(O)CSC(=O)C(Cc1c[nH]c2ccccc12)NC(=O)Cc1ccc(-c2ccccc2)cc1 (centres undefined) ?
4.78

----------
assay explanation: Inhibition of NDM-1 (unknown origin)
Set-up: species or system Bacteria
Kindly apply the following: satisfied if IC50 is less than 10 µM, not satisfied in every other case.

Bench note: check whether CC1=C(c2ccc(Cl)cc2)N(/C(C)=N/c2ccc(Br)cc2)C(c2ccc(Cl)cc2)N1c1ccc(Br)cc1 (stereo not given) shows IC50 below 10 µM
not satisfied

And CC1=C(c2ccc(Cl)cc2)N(/C(C)=N/c2ccc(Cl)cc2)C(c2ccc(Cl)cc2)N1c1ccc(Br)cc1 (stereo not given) ?
not satisfied

And C[C@@H](CS)C(=O)N[C@@H](C(=O)O)c1ccc2cc[nH]c2c1 ?
not satisfied

And CCCCC(=O)NC(CCSC)C(=O)SCC(=O)O (stereo not given) ?
not satisfied

And O=C(O)C(=O)CBr [BROMOPYRUVATE] ?
satisfied

And O=C(O)c1ccc(N(Cc2ccccc2)C(=O)c2cccs2)c(CP(=O)(O)O)n1 ?
satisfied

And O=C(O)c1nccn1Cc1ccc(O)cc1 ?
not satisfied

And CC1(C)S[C@@H]2CS[C@@H](CS)N2[C@H]1C(=O)O ?
not satisfied

And Oc1c(C(Nc2ccc(F)cc2)c2cncs2)ccc2cccnc12 (stereo not given) ?
not satisfied

And O=C(Nc1cccc(-c2cc(C(=O)O)nc(C(=O)O)c2)c1)c1ccccc1 ?
satisfied

----------
assay explanation: Inhibition of NDM-1 (unknown origin)
Set-up: species or system Bacteria
property: pIC50
Entry type: numeric. Quantity: pIC50, the -log10 of concentration in molar units.

Query: pIC50; subject: NCc1ccc(Cn2ccnc2C(=O)O)cc1
3.78

And CCCCC(=O)NC(Cc1ccccc1)C(=O)SCC(=O)O (stereo unspecified) ?
4.54

And O=C(O)c1cccc(CP(=O)(O)O)n1 ?
6.43

And O=C(O)[C@H]1CS[C@@H]2CS[C@@H](CS)N12 ?
3.96

And O=C(O)CSC(=O)C(Cc1c[nH]c2ccccc12)NC(=O)Cc1ccccc1 (stereo unspecified) ?
4.55

And O=C(O)CSC(=O)C(Cc1ccccc1)NC(=O)Cc1ccc(-c2ccccc2)cc1 (stereo unspecified) ?
4.36

----------
assay explanation: Binding affinity to NDM-1 (unknown origin) assessed as inhibition constant
Parameters: species or system Bacteria
property: Ki (µM)
State the answer as a number, implicitly in µM.

Query: Ki; subject: O=C(CSc1nnc(-c2ccccc2O)s1)Nc1nc2ccccc2s1
0.81

And O=C(CSc1n[nH]c(-c2ccncc2)n1)Nc1ccccc1 ?
0.42

And O=C(O)c1ncsc1NS(=O)(=O)c1cccnc1 ?
0.29

And O=C(CSc1nnc(-c2ccccc2O)[nH]1)Nc1nc2ccccc2s1 ?
0.35

And N[C@@H](C(=O)N[C@@H]1C(=O)N2C(C(=O)O)=C(Cl)CS[C@H]12)c1ccccc1 [CEFACLOR ANHYDROUS] ?
2300

And O=C(CSc1nnc(-c2ccccc2O)[nH]1)Nc1ccccc1 ?
0.43

And O=C(CSc1nnc(-c2ccccc2O)o1)Nc1ccccc1 ?
0.6

And O=C(CSc1nnc(-c2ccncc2)o1)Nc1ccccc1 ?
0.23

And O=C(CSc1nnc(-c2ccccc2O)s1)Nc1ccccc1 ?
0.64

And O=c1c2ccccc2[se]n1-c1ccccc1 [EBSELEN] ?
0.38

And O=C(CSc1nnc(-c2ccncc2)s1)Nc1ccccc1 ?
1.2

And O=Cc1coc2ccccc2c1=O ?
0.58

And O=C(NOC(=O)Oc1ccccc1)OCc1ccccc1 ?
140
